The origin of these recorded values is patent US20120132797A1.

system: Wistar (Crl:WI(Han)) rats; test: Mass spectrometry-based plasma metabolite profiling of rats treated with known inducers of thyroid function impairment; format: in vivo, rat; settings: male rats, mh7 (study day 7), ratio of group medians vs controls, Table 4
Quantity name: erythro-Sphingosine
No unit in the answer, please; the number alone is enough.

Here Cc1cccc(C)c1N(Cn1cccn1)C(=O)CCl was tested on Wistar (Crl:WI(Han)) rats, and its erythro-Sphingosine came to 2.31

Here CCC(CC)Nc1c([N+](=O)[O-])cc(C)c(C)c1[N+](=O)[O-] was tested on Wistar (Crl:WI(Han)) rats, and its erythro-Sphingosine came to 2.78

Here Cn1cc[nH]c1=S was tested on Wistar (Crl:WI(Han)) rats, and its erythro-Sphingosine came to 2.92

Here CCC1(c2ccccc2)C(=O)NC(=O)NC1=O [Phenobarbital sodium] was tested on Wistar (Crl:WI(Han)) rats, and its erythro-Sphingosine came to 1.39

====

tested on: Wistar (Crl:WI(Han)) rats; test: Mass spectrometry-based plasma metabolite profiling of rats treated with known inducers of thyroid function impairment; type: in vivo, rat; details: male rats, mh28 (study day 28), ratio of group medians vs controls, Table 4
Quantity name: Cytosine
No unit in the answer, please; the number alone is enough.

Here CCC1(c2ccccc2)C(=O)NC(=O)NC1=O [Phenobarbital sodium] was tested on Wistar (Crl:WI(Han)) rats, and its Cytosine came to 0.98

Here CCC(CC)Nc1c([N+](=O)[O-])cc(C)c(C)c1[N+](=O)[O-] was tested on Wistar (Crl:WI(Han)) rats, and its Cytosine came to 0.81

Here Cc1cccc(C)c1N(Cn1cccn1)C(=O)CCl was tested on Wistar (Crl:WI(Han)) rats, and its Cytosine came to 0.66

Here Cn1cc[nH]c1=S was tested on Wistar (Crl:WI(Han)) rats, and its Cytosine came to 0.39

====

For each of the compounds below, state its Citrate.
test system: Wistar (Crl:WI(Han)) rats; test: Mass spectrometry-based plasma metabolite profiling of rats treated with known inducers of thyroid function impairment; type: in vivo, rat; settings: male rats, mh7 (study day 7), ratio of group medians vs controls, Table 4

Kindly note the recorded Citrate for Cc1cccc(C)c1N(Cn1cccn1)C(=O)CCl [Metazachlor] , which is 0.99

Kindly note the recorded Citrate for CCC1(c2ccccc2)C(=O)NC(=O)NC1=O [Phenobarbital sodium] , which is 0.89

Kindly note the recorded Citrate for CCC(CC)Nc1c([N+](=O)[O-])cc(C)c(C)c1[N+](=O)[O-] [Pendimethalin] , which is 0.86

Kindly note the recorded Citrate for Cn1cc[nH]c1=S [Methimazole] , which is 0.69

====

tested on: Wistar (Crl:WI(Han)) rats; experiment: Mass spectrometry-based plasma metabolite profiling of rats treated with known inducers of thyroid function impairment; assay type: in vivo, rat; conditions: male rats, mh28 (study day 28), ratio of group medians vs controls, Table 4
Quantity name: Glycine
No unit in the answer, please; the number alone is enough.

Kindly note the recorded Glycine for CCC1(c2ccccc2)C(=O)NC(=O)NC1=O [Phenobarbital sodium] , which is 1.12

Kindly note the recorded Glycine for Cc1cccc(C)c1N(Cn1cccn1)C(=O)CCl , which is 1.26

Kindly note the recorded Glycine for CCC(CC)Nc1c([N+](=O)[O-])cc(C)c(C)c1[N+](=O)[O-] , which is 1.32

Kindly note the recorded Glycine for Cn1cc[nH]c1=S , which is 0.98

====

tested on: Wistar (Crl:WI(Han)) rats; assay: Mass spectrometry-based plasma metabolite profiling of rats treated with known inducers of thyroid function impairment; assay type: in vivo, rat; details: male rats, mh14 (study day 14), ratio of group medians vs controls, Table 4
Quantity name: Glycine
No unit in the answer, please; the number alone is enough.

Kindly note the recorded Glycine for Cc1cccc(C)c1N(Cn1cccn1)C(=O)CCl , which is 1.10

Kindly note the recorded Glycine for CCC1(c2ccccc2)C(=O)NC(=O)NC1=O [Phenobarbital sodium] , which is 1.18

Kindly note the recorded Glycine for CCC(CC)Nc1c([N+](=O)[O-])cc(C)c(C)c1[N+](=O)[O-] , which is 1.15

Kindly note the recorded Glycine for Cn1cc[nH]c1=S , which is 1.25

====

test system: Wistar (Crl:WI(Han)) rats; experiment: Mass spectrometry-based plasma metabolite profiling of rats treated with known inducers of thyroid function impairment; type: in vivo, rat; conditions: male rats, mh14 (study day 14), ratio of group medians vs controls, Table 4
For each of the compounds below, state its myo-Inositol-2-phosphate.
No unit in the answer, please; the number alone is enough.

Kindly note the recorded myo-Inositol-2-phosphate for CCC1(c2ccccc2)C(=O)NC(=O)NC1=O [Phenobarbital sodium] , which is 1.16

Kindly note the recorded myo-Inositol-2-phosphate for CCC(CC)Nc1c([N+](=O)[O-])cc(C)c(C)c1[N+](=O)[O-] , which is 3.57

Kindly note the recorded myo-Inositol-2-phosphate for Cn1cc[nH]c1=S , which is 2.35

Kindly note the recorded myo-Inositol-2-phosphate for Cc1cccc(C)c1N(Cn1cccn1)C(=O)CCl , which is 4.01

====

For each of the compounds below, state its myo-Inositol-2-phosphate.
tested on: Wistar (Crl:WI(Han)) rats; assay: Mass spectrometry-based plasma metabolite profiling of rats treated with known inducers of thyroid function impairment; assay type: in vivo, rat; settings: male rats, mh7 (study day 7), ratio of group medians vs controls, Table 4
No unit in the answer, please; the number alone is enough.

Kindly note the recorded myo-Inositol-2-phosphate for Cn1cc[nH]c1=S [Methimazole] , which is 2.55

Kindly note the recorded myo-Inositol-2-phosphate for CCC(CC)Nc1c([N+](=O)[O-])cc(C)c(C)c1[N+](=O)[O-] [Pendimethalin] , which is 3.25

Kindly note the recorded myo-Inositol-2-phosphate for Cc1cccc(C)c1N(Cn1cccn1)C(=O)CCl [Metazachlor] , which is 2.17

Kindly note the recorded myo-Inositol-2-phosphate for CCC1(c2ccccc2)C(=O)NC(=O)NC1=O [Phenobarbital sodium] , which is 1.26

====

For each of the compounds below, state its myo-Inositol-2-phosphate.
tested on: Wistar (Crl:WI(Han)) rats; experiment: Mass spectrometry-based plasma metabolite profiling of rats treated with known inducers of thyroid function impairment; type: in vivo, rat; details: male rats, mh28 (study day 28), ratio of group medians vs controls, Table 4
No unit in the answer, please; the number alone is enough.

Here Cc1cccc(C)c1N(Cn1cccn1)C(=O)CCl [Metazachlor] was tested on Wistar (Crl:WI(Han)) rats, and its myo-Inositol-2-phosphate came to 2.79

Here Cn1cc[nH]c1=S [Methimazole] was tested on Wistar (Crl:WI(Han)) rats, and its myo-Inositol-2-phosphate came to 1.85

Here CCC(CC)Nc1c([N+](=O)[O-])cc(C)c(C)c1[N+](=O)[O-] [Pendimethalin] was tested on Wistar (Crl:WI(Han)) rats, and its myo-Inositol-2-phosphate came to 2.79

Here CCC1(c2ccccc2)C(=O)NC(=O)NC1=O [Phenobarbital sodium] was tested on Wistar (Crl:WI(Han)) rats, and its myo-Inositol-2-phosphate came to 1.15

====

test system: Wistar (Crl:WI(Han)) rats; experiment: Mass spectrometry-based plasma metabolite profiling of rats treated with known inducers of thyroid function impairment; assay type: in vivo, rat; conditions: male rats, mh14 (study day 14), ratio of group medians vs controls, Table 4
For each of the compounds below, state its Mannose.
No unit in the answer, please; the number alone is enough.

Here CCC(CC)Nc1c([N+](=O)[O-])cc(C)c(C)c1[N+](=O)[O-] [Pendimethalin] was tested on Wistar (Crl:WI(Han)) rats, and its Mannose came to 1.39

Here CCC1(c2ccccc2)C(=O)NC(=O)NC1=O [Phenobarbital sodium] was tested on Wistar (Crl:WI(Han)) rats, and its Mannose came to 1.05

Here Cc1cccc(C)c1N(Cn1cccn1)C(=O)CCl [Metazachlor] was tested on Wistar (Crl:WI(Han)) rats, and its Mannose came to 1.37

Here Cn1cc[nH]c1=S [Methimazole] was tested on Wistar (Crl:WI(Han)) rats, and its Mannose came to 1.04

====

tested on: Wistar (Crl:WI(Han)) rats; assay: Mass spectrometry-based plasma metabolite profiling of rats treated with known inducers of thyroid function impairment; assay type: in vivo, rat; conditions: male rats, mh14 (study day 14), ratio of group medians vs controls, Table 4
Quantity name: Phospha-tidylcholine (C18:0, 18:2)
No unit in the answer, please; the number alone is enough.

Here Cc1cccc(C)c1N(Cn1cccn1)C(=O)CCl was tested on Wistar (Crl:WI(Han)) rats, and its Phospha-tidylcholine (C18:0, 18:2) came to 1.55

Here Cn1cc[nH]c1=S was tested on Wistar (Crl:WI(Han)) rats, and its Phospha-tidylcholine (C18:0, 18:2) came to 1.28

Here CCC1(c2ccccc2)C(=O)NC(=O)NC1=O [Phenobarbital sodium] was tested on Wistar (Crl:WI(Han)) rats, and its Phospha-tidylcholine (C18:0, 18:2) came to 1.14

Here CCC(CC)Nc1c([N+](=O)[O-])cc(C)c(C)c1[N+](=O)[O-] was tested on Wistar (Crl:WI(Han)) rats, and its Phospha-tidylcholine (C18:0, 18:2) came to 1.25
